Sourced from a protein production outcome set (Wang et al. 2014)

- Measurement Notes: label from the status in PepcDB records
Measured Attribute: protein production

MGQFYCLHCDRYFSNVSVRDDHFKTKKHKKRVNMMMGQAPHSQLDADLAGGMGMPDNGPKLMSNLVFTELRKPETEDLPGMGQFNCLLCHRNFSNASVMDYHFKTKKHKKRVKKIERPAPHSQLDADLAGGMGMPDNGPKLMSA    not failed
HVSDLDWLMSGLVQRVPHTTSAVLLSCDGLVKSVHGLDPDSADHMAALASGLYSLGRSAGIRFGDGGDVRQVVVELDSTLLFVSTAGSGTCLAVLAGREADAAVLGYEMAMLVKSVRPYLMTAPRQ    not failed

----------
- Measurement Notes: label from the status in PepcDB records
Measured Attribute: protein production

MREETKCALIIDESLPLGLIANTAAILGAALGKNKPDLIGETVTDGSGIDHLGIVKIPIPILKGNAELLHQLSQKLLTDEFNDILTVDFTDVAQSIHTYEAYIEAFQSTAASDYRYFGIGICGDKKKVARLTGSLGLLRLEHHHHHH    not failed
MTPQSDTPKVTGLKLKRKSRQLEISFDNGQQFTLSCELLRVYSPSAEVHGHGNPVLVTHKKNVNINAITPVGNYAVKLVFDDGHDTGLYSWKVLYDLASNQVDLWENYLARLRAAKASREPLIDMAVKYHT    not failed

----------
- Measurement Notes: label from the status in PepcDB records
Measured Attribute: protein production

LKDIETACKLLNITADPMDWSPSNVQKWLLWTEHQYRLPPMGKAFQELAGKELCAMSEEQFRQRSPLGGDVLHAHLDIWKSAA    not failed
MDYNQTVLSHLQKFWKHHDIKGFTWTLGRIVEELPDFQVFQVIPNHEDEPWVYVSSGIGQFLGQEFFIISPFETPEHIETLAMLASASMHYPDQFQLGKTVNIGRPWVEQSSFRHFLISLPYPYGQELEYMDNVRFFWLLPITQTERLFLNTHSVEELETKFDEAGIDYLDINRASTVWQAG    not failed
MGRKRKHSETEAPAPVKKSDEPAPDRPKRTLLGWKDKSEGEAEKAKALTSSGFKNKEKVLVTCSRRISFRYRSLMLNIVSLLPHCKKDSKVEAKSSKGATLNELIELKNSNSCLFFECRKHKDLYMWMVKSPNGPSVKFLVKAVHAMEEMKLTGNHLKGSRPLLTFSSNFDKDAHWKLLKEMLTQVFGIPKEHRKSKPYHDHVFVFSIVDEHIWFRNYQISVPHNESDKIAKGGLDKMTLIEVGPRFCLNPIKIFAGSFGGPTLYENPLYVSPNQIRALEKRNKAGKFAKKIKAKTRKKMHELSNPLEPDEFADMWKDDE    failed
MPHLRFRAVEAHIVESLVPTLLNELSSLLSTARNAFTFELINTQYFAEGGVYPMVEVLWFGREQQTQDQIAQVITDQIRQLLGADSHLAVVFIPLQRTAYYLDGQHF    not failed
MIIDTPLADRYPHAMKNQDESGDGWESLCERCGLCCFEKIEDENGTVFFTATPCRYLDVTTRQCVIYDKRFDINPECVKLTEELVRTLPWLHDDCAYRKALGVRLSKVRMNGRNKGKRG    failed

# input for lookup
Entry `PRWSVAAATAVTDFCDRLACDRVALGRRHRRRSKVVSLSHSGNFQRSSELVQRIADAMDEAIDQGEPIRMPQDSDNTLTLTAAHQELIHSGVPRAVLTVLLRRDGRVTGAMVLERGGNNPFRDEEVELVEAVAGILGPVLEEKRLNDR` , protein production reported as failed

----------
- Measurement Notes: label from the status in PepcDB records
Measured Attribute: protein production

LETSSYLNVLVNSQWKSRWCSVRDNHLHFYQDRNRSKVAQQPLSLVGCEVVPDPSPDHLYSFRILHKGEELAKLEAKSSEEMGHWLGLLLSESG    not failed
MSLLIRELETNDLDNFPEIDDSFIVNARLMLSLSKVNRRIEYTVEDVPSYEKSYLQNDNEELVYNEYINKPNQIIYIALLHNQIIGFIVLKKNWNNYAYIEDITVDKKYRTLGVGKRLIAQAKQWAKEGNMPGIMLETQNNNVAACKFYEKCGFVIGGFDFLVYKGLNMTSDEVAIYWYLHFDS    failed
MSDAAEIRMDAGALNAFLHRAFPEVDPEQMPQVLEVEAGRALLKLPYASRQLRPGGVISGPTMMSLADTAAYAMILARIGEVALSVTTSLNIHFLRGCKPGDLYAEATLLKLGRRIATVDVLMWTQGRERAAAKATVAYAIP    failed
MTINNDPMRDAIVDTAVELAAHTSWEAVRLYDIAARLAVSLDEIRLYFREKDELIDAWFDRADSRMLKEAESAGFLDLVASERIHHLIMIWLDALAVQRKVTRQMIMSKLEFGHIHIQIPAVMRVSRTVQWVREAAQRDATFMRRALEESTLTTIYLMTFFFWMRDESENSRHTRQFLKRHLTMAAWLGQKVYGKDPEKSTVPHKQQIPLQFD    not failed

----------
- Measurement Notes: label from the status in PepcDB records
Measured Attribute: protein production

RLKVEDALSYLDQVKLQFGSQPQVYNDFLDIMKEFKSQSIDTPGVISRVSQLFKGHPDLIMGFNTFLPPGYKIEVQTNDMVNVTTPGQVHQIPTHGI    failed
MIMMESGKLDLDRTKEGVKKYWDYGSKFYDTAPGLGGNEESQIWKKLLSSSIGPDLKNILDVGSGTGIIAMYLAELGYGVTAVDFSEGMMDIARKKALEKGAKIRFMEGDIENLSFEDETFDCVTARYVLWTLPHPEKALKEWVRVVKPGGRIVIIDGKWVTRGLLPRISAMNYHIYRFIKYGKNPFTYDYRKEVSVGLPNPHGVEKKQIMEYVSKAGLTDIVVTDLKIIRDIQRKKLPWYLKYANDHPIFMVRGTVAKKG    failed

----------
- Measurement Notes: label from the status in PepcDB records
Measured Attribute: protein production

MDFFTDQVKKKFSDKKPESSDPEPNHNKNKPGHTEPTTHKPGHGEPTTHKPVSNTDPTTHRPATNAELMASAKIVAEAAQAAARHESDKLDKAKVAGATADILDAASRYGKLDEKSGVGQYLEKAEQYLHKYETSHSHSSTGGTGSHGNVGGHGGGAGAPAAKKEDEKSGGGHGFGDYAKMAQGFMK    failed
MSVAILAQEKLGDCVLLTPLVRNLRQAFPDLEIHLITFSRASANFFMNDPQVTAVHLVKKQPRRYFREVLSRKFDLLFNTKDHPSTWFLLQSALIRARFKVGHNNPFHEGLYDRLLDTEFHAHMAVKNCALLPLLGVTADTEACRPSLEHHHHHH    not failed
MREDNPNWFLRWEEELPSPEELIPISQTLITPHLALAFQIGSPNHHLGSKRTTAIYHQKLQSSTTPTTPTPTPPPMMMNSDFGGGDSTDLGSGSIGGEPARTLKRPRLVWTPQLHKRFVDAVGHLGIKNAVPKTIMQLMSVEGLTRENVASHLQKYRLYLRRMQGGNGNGITGGHVIVSDSATDRLFASSPVPAHFLSPDYLMPPLEHSYMGKHVITQQNQVVRNLRYEDSEYGHGSMKMLKLFPAGN    not failed
MVRSCAPHKRKAGRRARLAFGALASHGARENTEVPMRYVLILLLALFGYLLFWPIPVAPVAYHPPETPGFTGDFAENRVLDRAEFVTLPDGEIGPEDLAVMPDGTVYTTSLAGNLYRIDGAVPQLVDRLGGRPLGLKAGPDGALYIADSFRGILRWTAPGEVETVVDQIDGAPVIYANQLDLGRDGTIYFSNSTDRFDPRTLGGTKPTSVMTVWEQSDTGYVARRTPDGRVEKIATGFVYTNGVALSPDEDFLLINETGRARVHRLWLTGDKAGQSEVFLDNLPGYPDNIEAQGDGTYWLAFASPRVPAEALMPYPFLRKVVWRLGPKVRPAPIHRGMLIQFDGTGRILRTVQDPDGRLGITTGGKQVGARFYVMTLDSPGFARMDSADLR    failed

----------
- Measurement Notes: label from the status in PepcDB records
Measured Attribute: protein production

MPAFRVPRVRRAQHAEVALGAVLGVMLIGLSVLISRFHLQPVEGVTVLAQLADASLGHNWAFYVVQFATMILLALSANTSFGGLPVLLKLPARDNYLPHVFALKADRQVHRHGVLTLAGVVAALLVFSGGDTNTLVPLFAIGVFIGFTIAQVGMVRHWRAE    failed
AIAITGETEPACVEDASQLAEQRNGAPVMEAGCAAVPVEANATKRGYWRQRTLHSWFIGRKPQRTCIAVDIDEVLAFFVPELCAFHNKRYGTRLQATDFHSYRFAEVWGGTDTDAIRKVHEFFRTPAFQELQPIPGAKQVLQSRLARFRFVVVTSRQLVIEQETRAWLDKHFSGIFEAIYLGNQWALHPNGEHGTGVGSAAQEPQRLFANRRRKSQVCKACGAAVLIDDLPHNLLDCSENGVFGVLFDFQGQYGWSKSPAFESKDIAVVHSWEAVGELLDRL    failed
